This collection of values is drawn from paper PMC2944806.

# tested_on: HLA class I molecule A*0201 (Homo sapiens, UniProt P04439, D140Y/D185E/D98H/E176V/E277Q/G131W/G231S/I119V/I121R/I166T/I218V/L300P/L318F/N151K/N90K/P208A/P217A/Q86G/Q94H/R138H/R169H/T345S)
# Construct: purchased ProImmune Ltd., Oxford, UK
# Format: binding
# test_parameters: REVEAL assay, assembly of peptide-HLA complex by ELISA with conformation-dependent anti-HLA antibody, relative to positive control peptide for that allele, comparable within an allele only
Cut-off 40% on Score (experimentally measured binding affinity, % binding compared to control peptide): below means t, at or above means f.

biosequence	class_name
RVNEILHIL [HTLV-1 nonamer peptide]	f
QLDSLISEA [HTLV-1 nonamer peptide]	f
TLGQHLPTL [HTLV-1 nonamer peptide]	f
LVLQSSSFI [HTLV-1 nonamer peptide]	f
IQYSSFHSL [HTLV-1 nonamer peptide]	f
FVERLNIAL [HTLV-1 nonamer peptide]	t
KALMPVFTL [HTLV-1 nonamer peptide]	f
LLYKISLTT [HTLV-1 nonamer peptide]	f
LLITPVLQL [HTLV-1 nonamer peptide]	f
KLLQEKEDL [HTLV-1 nonamer peptide]	t
YLCSSLVAS [HTLV-1 nonamer peptide]	f
ALLGEIQWV [HTLV-1 nonamer peptide from Pol]	f
GFGQSLLFG [HTLV-1 nonamer peptide]	t
LTPPITHTT [HTLV-1 nonamer peptide]	t
SAQWIPWRL [HTLV-1 nonamer peptide]	t
RICPINYSL [HTLV-1 nonamer peptide]	f
TLTAWQNGL [HTLV-1 nonamer peptide]	f
LSPPITWPL [HTLV-1 nonamer peptide]	t
YLYQLSPPI [HTLV-1 nonamer peptide from Tax]	f
LQYLCSSLV [HTLV-1 nonamer peptide]	f
STLTTPGLI [HTLV-1 nonamer peptide]	t
LLLDLPADI [HTLV-1 nonamer peptide]	f
TLSFPDPGL [HTLV-1 nonamer peptide]	t
LLQYLCSSL [HTLV-1 nonamer peptide]	f
LVEELVDGL [HTLV-1 nonamer peptide]	t
ILPEDCLPT [HTLV-1 nonamer peptide]	t
WQMKDLQAI [HTLV-1 nonamer peptide]	f
AAGAALIPV [HTLV-1 nonamer peptide]	t
GLLSLEEEL [HTLV-1 nonamer peptide, HBZ26–34, recognised in the context of HLA-A*0201]	f
ILIQTQAQI [HTLV-1 nonamer peptide]	f

* * *

Overview of reported Score (experimentally measured binding affinity, % binding compared to control peptide) across a group of sequences:
# tested_on: HLA class I molecule B*3501 (Homo sapiens, UniProt P01889, A329T/A93T/A95T/C349S/D201E/D98Y/E176V/E187L/E204Q/E69T/I218V/K202T/L119I/Q94N/R155S/R180L/S121R/S35A/S48A/T118I/V127L/V306I/V36M/Y140S/Y91F)
# protocol_text: REVEAL HLA-peptide binding assay, B*3501
# test_parameters: assembly of peptide-HLA complex by ELISA with conformation-dependent anti-HLA antibody, relative to positive control peptide for that allele, comparable within an allele only
# Protocol: The REVEAL HLA-peptide binding assay (ProImmune Ltd., Oxford, UK) was used to quantify peptide-HLA binding. For each allele-peptide combination that was tested, assembly of peptide-HLA complexes was quantified by ELISA with a conformation-dependent anti-HLA antibody. Samples of assembling peptide-HLA complexes were taken at a defined time point and snap-frozen in liquid nitrogen prior to analysis. […]
measured_metric: Score (experimentally measured binding affinity, % binding compared to control peptide) (%)

biosequence	output_unit	experimental_value
EEEKQIAEY [HTLV-1 nonamer peptide]	%	8.99
YWQGRLEAM [HTLV-1 nonamer peptide]	%	7.1
FPGFGQSLL [HTLV-1 nonamer peptide]	%	55.31
LPFHSTLTT [HTLV-1 nonamer peptide]	%	102.24
ELVDGLLSL [HTLV-1 nonamer peptide]	%	0
SLVQLRQAL [HTLV-1 nonamer peptide]	%	0
CPINYSLLA [HTLV-1 nonamer peptide]	%	102.68
DPILRSLAY [HTLV-1 nonamer peptide]	%	72.18
RPPRGLAAH [HTLV-1 nonamer peptide]	%	34.86
LLQEKEDLM [HTLV-1 nonamer peptide]	%	0
LTPPITHTT [HTLV-1 nonamer peptide]	%	0
EPGPSSYDF [HTLV-1 nonamer peptide]	%	102.27
AAHHWLNFL [HTLV-1 nonamer peptide]	%	0
WTFTDGTPM [HTLV-1 nonamer peptide]	%	137.29
LASLLPKGY [HTLV-1 nonamer peptide]	%	98.24
FPTQRTSKT [HTLV-1 nonamer peptide]	%	81.35
YISQDFLNM [HTLV-1 nonamer peptide]	%	0
SAQWIPWRL [HTLV-1 nonamer peptide]	%	14.94
CPLCQDPTH [HTLV-1 nonamer peptide]	%	36.7
FVERLNIAL [HTLV-1 nonamer peptide]	%	13.69
HPGQLGAFL [HTLV-1 nonamer peptide]	%	34.24
EPEEDALLL [HTLV-1 nonamer peptide]	%	11.92
YPGRVNEIL [HTLV-1 nonamer peptide]	%	109.69
WPLLPHVIF [HTLV-1 nonamer peptide]	%	49.66
LPEDCLPTT [HTLV-1 nonamer peptide]	%	52.2
GFGQSLLFG [HTLV-1 nonamer peptide]	%	0
LSPPITWPL [HTLV-1 nonamer peptide]	%	41.83
LPTTLFQPA [HTLV-1 nonamer peptide from Tax]	%	119.5
MQELGIDGY [HTLV-1 nonamer peptide]	%	48.1
QAMRKYSPF [HTLV-1 nonamer peptide]	%	69.18
MPVFTLSPV [HTLV-1 nonamer peptide from Pol]	%	114.77
WTINHLNVL [HTLV-1 nonamer peptide]	%	1.04
LVEELVDGL [HTLV-1 nonamer peptide]	%	0
QAAPGSPQF [HTLV-1 nonamer peptide]	%	86.5
YILWDKQIL [HTLV-1 nonamer peptide]	%	0
LAAHHWLNF [HTLV-1 nonamer peptide]	%	75.12
RVNEILHIL [HTLV-1 nonamer peptide]	%	8.02
ASGLFRCLP [HTLV-1 nonamer peptide]	%	0
FPQCTILQY [HTLV-1 nonamer peptide]	%	103.38
